Measured IC50, listed per entry for reference.
- Test system: HT-29
- Test Method Notes: SRB cell proliferation assay, HT-29
- Type: cell-based
- Condition Details: Homo sapiens, HT-29, 72 h, 72 hours, SRB assay; read-out: CELLULAR IC50 HT-29
Measurement Name: IC50

molecule="CCCN(C)N1c2nc(Nc3ccc(C(=O)NC4CCN(C)CC4)cc3OC)ncc2N(C)C(=O)C1CC (stereo not drawn)" result="< 1000 nM"
molecule="CCC1C(=O)N(C)c2cnc(Nc3ccc(C(=O)NC4CCN(C)CC4)cc3OC)nc2N1N(C)C (single isomer, unassigned) [Compound 36]" result="> 1000 nM"
molecule="CCCN(C)N1c2nc(Nc3ccc(C(=O)N[C@H]4CC[C@H](N5CCN(CC6CC6)CC5)CC4)cc3OC)ncc2N(C)C(=O)C1CC (relative stereo)" result="< 1000 nM"
molecule="CCC1C(=O)N(C)c2cnc(Nc3ccc(C(=O)NC4CCN(C)CC4)cc3OC)nc2N1N(C)CC (stereo not drawn)" result="< 1000 nM"
molecule="CCC1C(=O)N(C)c2cnc(Nc3ccc(C(=O)N[C@H]4CC[C@H](N5CCN(CC6CC6)CC5)CC4)cc3OC)nc2N1N(C)CC (relative stereo)" result="< 1000 nM"
molecule="CCC1C(=O)N(C)c2cnc(Nc3ccc(C(=O)NCC4CCN(CC)CC4)cc3OC)nc2N1N(C)C (stereo not drawn)" result="< 1000 nM"

----------
- Tested on: IMR-90
- Test Method Notes: SRB cell proliferation assay, IMR-90
- Assay type: cell-based
- Condition Details: Homo sapiens, 72 hours, SRB assay, slow cycling cell line, read-out: CELLULAR IC50 IMR-90
- Procedure: We observed the surprising finding that compounds of the invention were useful in inhibiting proliferation of tumor cell lines (see Table 3). Cells were exposed to the test compounds at various concentrations appropriate to determine an IC50 for 72 hours. Cell proliferation was measured using the SRB assay according to Shekan et al (J Natl Cancer Inst (1990) 82, 1107-112) in order to estimate the IC50 values shown in Table 3. […]
Measurement Name: IC50

molecule="CCC1C(=O)N(C)c2cnc(Nc3ccc(C(=O)N[C@H]4CC[C@H](N5CCN(CC6CC6)CC5)CC4)cc3OC)nc2N1N(C)CC(C)C (relative stereo)" result="> 1 µM"
molecule="CCC1C(=O)N(C)c2cnc(Nc3ccc(C(=O)NCC4CCN(CC)CC4)cc3OC)nc2N1N(C)CC(C)C (stereo not drawn)" result="> 1 µM"
molecule="CCC1C(=O)N(C)c2cnc(Nc3ccc(C(=O)NC4CCN(C)CC4)cc3OC)nc2N1N(C)CC1CC1 (stereo not drawn)" result="> 1 µM"
molecule="CCC1C(=O)N(C)c2cnc(Nc3ccc(C(=O)N[C@H]4CC[C@H](N5CCN(CC6CC6)CC5)CC4)cc3OC)nc2N1N(C)CC1CC1 (relative stereo)" result="> 1 µM"
molecule="CCC1C(=O)N(C)c2cnc(Nc3ccc(C(=O)N[C@H]4CC[C@H](N5CCN(CC6CC6)CC5)CC4)cc3OC)nc2N1N(C)CC1CCCC1 (relative stereo)" result="> 1 µM"
molecule="CCCN(C)N1c2nc(Nc3ccc(C(=O)N[C@H]4CC[C@H](N5CCN(CC6CC6)CC5)CC4)cc3OC)ncc2N(C)C(=O)C1CC (relative stereo)" result="> 1 µM"
molecule="CCC1C(=O)N(C)c2cnc(Nc3ccc(C(=O)N[C@H]4CC[C@H](N5CCN(CC6CC6)CC5)CC4)cc3OC)nc2N1N(C)CC (relative stereo)" result="> 1 µM"
molecule="CCC1C(=O)N(C)c2cnc(Nc3ccc(C(=O)NCC4CCN(CC)CC4)cc3OC)nc2N1N(C)Cc1ccccc1 (stereo not drawn)" result="> 1 µM"
molecule="CCC1C(=O)N(C)c2cnc(Nc3ccc(C(=O)NC4CCN(C)CC4)cc3OC)nc2N1N(C)CC1CCC1 (stereo not drawn)" result="> 1 µM"
molecule="CCC1C(=O)N(C)c2cnc(Nc3ccc(C(=O)NCCN4CCCC4)cc3OC)nc2N1N(C)C (stereo not drawn)" result="> 1 µM"
molecule="CCCN(C)N1c2nc(Nc3ccc(C(=O)NC4CCN(C)CC4)cc3OC)ncc2N(C)C(=O)C1CC (stereo not drawn)" result="> 1 µM"
molecule="CCC1C(=O)N(C)c2cnc(Nc3ccc(C(=O)NCC4CCN(CC)CC4)cc3OC)nc2N1N(C)C (stereo not drawn)" result="> 1 µM"
molecule="CCC1C(=O)N(C)c2cnc(Nc3ccc(C(=O)NC4CCN(C)CC4)cc3OC)nc2N1N(C)CC(C)C (stereo not drawn)" result="> 1 µM"
molecule="CCC1C(=O)N(C)c2cnc(Nc3ccc(C(=O)NCC4CCN(CC)CC4)cc3OC)nc2N1NC (stereo not drawn)" result="> 1 µM"
molecule="CCC1C(=O)N(C)c2cnc(Nc3ccc(C(=O)NC4CCN(C)CC4)cc3OC)nc2N1N(C)CC1CCCC1 (stereo not drawn)" result="> 1 µM"

Recorded values, source patent EP2112152A1.
